Data provenance is patent US20250382322A1.

Target protein (sequence): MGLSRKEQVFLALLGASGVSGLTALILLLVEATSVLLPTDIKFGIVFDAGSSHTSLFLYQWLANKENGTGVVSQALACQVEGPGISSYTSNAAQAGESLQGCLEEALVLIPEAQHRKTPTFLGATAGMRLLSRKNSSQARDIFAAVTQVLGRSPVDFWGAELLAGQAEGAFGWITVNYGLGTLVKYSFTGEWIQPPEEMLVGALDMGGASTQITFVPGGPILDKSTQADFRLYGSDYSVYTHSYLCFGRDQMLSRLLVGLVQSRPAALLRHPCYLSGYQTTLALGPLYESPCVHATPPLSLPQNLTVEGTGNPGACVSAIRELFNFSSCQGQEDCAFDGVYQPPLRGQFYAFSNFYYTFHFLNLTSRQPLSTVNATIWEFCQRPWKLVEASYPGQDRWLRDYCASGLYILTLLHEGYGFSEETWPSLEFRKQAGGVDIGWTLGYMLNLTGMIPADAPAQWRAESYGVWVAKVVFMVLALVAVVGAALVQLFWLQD
Recorded measurements of IC50, one per entry

>  <compound>
O=C(NCCCCCCNC(=O)c1ccc2c(c1)C1(OC2=O)c2ccc(O)cc2Oc2cc(O)ccc21)c1ccc(CNc2nc(Cl)nc3c2ncn3[C@@H]2O[C@H](COP(=O)(O)CP(=O)(O)O)[C@@H](O)[C@H]2O)cc1 [Compound 20]

>  <IC50>
< 50 µM

$$$$
>  <compound>
CCCN(Cc1ccc(-c2cn(CCF)nn2)cc1)c1nc(Cl)nc2c1ncn2[C@@H]1O[C@H](COP(=O)(O)CP(=O)(O)O)C(O)C1O (some centres unmarked) [Compound 2]

>  <IC50>
> 50 µM

$$$$

---

- assayed.target: recombinant soluble rat CD73 (Rattus norvegicus)
- Construct: glutathione-S-transferase fusion protein of soluble rat CD73; glutathione-S-transferase (GST)
- Sequence (P21588 29-551 limits assumed): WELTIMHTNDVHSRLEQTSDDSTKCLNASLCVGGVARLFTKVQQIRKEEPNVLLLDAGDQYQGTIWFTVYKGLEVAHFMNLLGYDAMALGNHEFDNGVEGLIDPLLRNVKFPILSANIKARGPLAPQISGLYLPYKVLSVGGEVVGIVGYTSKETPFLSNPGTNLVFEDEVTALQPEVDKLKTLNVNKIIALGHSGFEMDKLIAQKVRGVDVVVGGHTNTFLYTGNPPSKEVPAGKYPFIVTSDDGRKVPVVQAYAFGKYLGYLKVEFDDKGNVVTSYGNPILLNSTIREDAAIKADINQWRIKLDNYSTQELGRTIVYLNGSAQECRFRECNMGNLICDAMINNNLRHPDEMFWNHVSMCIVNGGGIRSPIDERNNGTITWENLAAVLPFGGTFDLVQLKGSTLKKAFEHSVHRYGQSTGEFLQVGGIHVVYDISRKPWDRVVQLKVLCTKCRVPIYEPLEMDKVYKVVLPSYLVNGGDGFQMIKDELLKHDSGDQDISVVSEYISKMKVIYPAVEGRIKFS
- test.description: CD73 enzyme inhibition assay with [2,8-3H]AMP, soluble rat CD73
- assay.setup: [2,8-3H]AMP (5 μM) as substrate; read-out: Rat soluble CD73 Ki ± SEM
pKi: −log10 of the molar value.

>  <compound>
CCCN(Cc1ccc(-c2cn(CCF)nn2)cc1)c1nc(Cl)nc2c1ncn2[C@@H]1O[C@H](COP(=O)(O)CP(=O)(O)O)C(O)C1O (some centres unmarked)

>  <pKi>
8.22

$$$$
>  <compound>
O=C(NCCCCCCNC(=O)c1ccc2c(c1)C1(OC2=O)c2ccc(O)cc2Oc2cc(O)ccc21)c1ccc(CNc2nc(Cl)nc3c2ncn3[C@@H]2O[C@H](COP(=O)(O)CP(=O)(O)O)[C@@H](O)[C@H]2O)cc1

>  <pKi>
7.74

$$$$
